Assign % Active Ester Remaining to each entry below.
- Test method notes: Comparative active ester reactivity study with HOPO nucleophile
- Protocol conditions: 1,2-HOPO 1 eq., 120 min, 22±2° C.
Field: numeric (%). Do not append units.

Task: Write down % Active Ester Remaining measured for item O=C(CCc1cccnc1)ON1C(=O)CCC1=O
Result: 7.15

Task: Write down % Active Ester Remaining measured for item O=C(CCc1cccnc1)Oc1c(F)cccc1F
Result: 84.98

Task: Write down % Active Ester Remaining measured for item O=C(CCc1cccnc1)Oc1c(F)c(F)cc(F)c1F
Result: 5.19

Task: Write down % Active Ester Remaining measured for item O=C(CCc1cccnc1)Oc1ccc([N+](=O)[O-])cc1 [Compound D, 4-Nitrophenyl-3-(pyridin-3-yl)propanoate]
Result: 85.25

Task: Write down % Active Ester Remaining measured for item O=C(CCc1cccnc1)Oc1c(Cl)cccc1Cl
Result: 95.51

###

Assign % Active Ester Remaining in DMSO at 22 ± 2° C. to each entry below.
- Test method notes: DMSO stability study
- Format: physicochemical
- Protocol conditions: 60 min
- Protocol: To a 4 mL scintillation vial containing Compound A-E (in respective experiments; 4 mg) was added a stir bar followed by 500 μL of anhydrous dimethyl sulfoxide and was allowed to stir at room temperature (22±2° C.) for 4 hours. Timed aliquots at time (T)=15, 30, 60, 120 and 240 minutes were taken, dissolved in water to achieve 2% DMSO composition and analyzed by HPLC-MS using elution method 1 (Table 5).
Field: numeric (%). Do not append units.

Task: Write down % Active Ester Remaining in DMSO at 22 ± 2° C. measured for item O=C(CCc1cccnc1)ON1C(=O)CCC1=O [Compound E]
Result: 96.83

Task: Write down % Active Ester Remaining in DMSO at 22 ± 2° C. measured for item O=C(CCc1cccnc1)Oc1c(Cl)cccc1Cl [Compound A]
Result: 99.81

Task: Write down % Active Ester Remaining in DMSO at 22 ± 2° C. measured for item O=C(CCc1cccnc1)Oc1ccc([N+](=O)[O-])cc1 [Compound D, 4-Nitrophenyl-3-(pyridin-3-yl)propanoate]
Result: 99.29

Task: Write down % Active Ester Remaining in DMSO at 22 ± 2° C. measured for item O=C(CCc1cccnc1)Oc1c(F)cccc1F [Compound B]
Result: 99.79

Task: Write down % Active Ester Remaining in DMSO at 22 ± 2° C. measured for item O=C(CCc1cccnc1)Oc1c(F)c(F)cc(F)c1F [Compound C]
Result: 93.91

###

- Test method notes: pH stability study
- Assay type: physicochemical
- Protocol conditions: pH 7 buffer, 20° C., 480 min
Quantity: % Remaining (%)
Field: numeric (%). Do not append units.

Task: Write down % Remaining measured for item O=C(CCc1cccnc1)Oc1ccc([N+](=O)[O-])cc1 [Compound D, 4-Nitrophenyl-3-(pyridin-3-yl)propanoate]
Result: 78.56

Task: Write down % Remaining measured for item O=C(CCc1cccnc1)Oc1c(Cl)cccc1Cl
Result: 97.82

Task: Write down % Remaining measured for item O=C(CCc1cccnc1)Oc1c(F)c(F)cc(F)c1F
Result: 5.60

Task: Write down % Remaining measured for item O=C(CCc1cccnc1)Oc1c(F)cccc1F
Result: 84.15

###

- Test method notes: pH stability study
- Assay type: physicochemical
- Protocol conditions: pH 7 buffer, 20° C., 15 min
Quantity: % Remaining (%)
Field: numeric (%). Do not append units.

Task: Write down % Remaining measured for item O=C(CCc1cccnc1)Oc1c(F)c(F)cc(F)c1F [Compound C]
Result: 94.61

Task: Write down % Remaining measured for item O=C(CCc1cccnc1)Oc1c(Cl)cccc1Cl [Compound A]
Result: 100

Task: Write down % Remaining measured for item O=C(CCc1cccnc1)Oc1ccc([N+](=O)[O-])cc1 [Compound D, 4-Nitrophenyl-3-(pyridin-3-yl)propanoate]
Result: 99.11

Task: Write down % Remaining measured for item O=C(CCc1cccnc1)Oc1c(F)cccc1F [Compound B]
Result: 99.35

Task: Write down % Remaining measured for item O=C(CCc1cccnc1)ON1C(=O)CCC1=O [Compound E]
Result: 86.24

Recorded values, source patent US20240139333A1.
